tested on: OVCAR-3 ovarian; assay: NCI tumour cell line growth inhibition, 48 h
property_measured: TGI (µM)
Your answer should be a plain number; it is taken to be in µM.

Some molecules with known TGI results, for comparison:
>>> reading("OCCN1CCCN(CCCN2c3ccccc3Sc3ccc(C(F)(F)F)cc32)CC1")
13.9
>>> reading("O=[N+]([O-])C(/C=C(\\Cl)[N+](=O)[O-])=C(Nc1ccccc1)Nc1ccccc1")
17.3
>>> reading("Nc1nc2c([nH]1)c1[nH]c3ccccc3c1c1[nH]c3ccccc3c21")
25.7

Turning to the following molecule.
Q: Returns the measured TGI for the input molecule. Input: CCOC(=O)/C(=C/c1cn(C(C)=O)c2ccccc12)P(=O)(OC)OC
Result: 64.8

###

test system: HL-60(TB) leukemia; assay: NCI tumour cell line growth inhibition, 48 h
Lab note: compare TGI against 30 µM. Equal or greater, write Met. Smaller, write Not met.

>>> discrete_label("CN(C)c1ccc(/C=C2\\N=C(c3ccccc3)N(c3nc4ccc(Sc5ccccc5)cc4[nH]3)C2=O)cc1")
"Met"
>>> discrete_label("O=C(O)C1C2OC(C(Br)C2Br)C1C(=O)O (centres undefined)")
"Met"
>>> discrete_label("O=C(NCCOC(=O)CCCCCCCCC(=O)OCCNC(=O)NC(=O)c1cn(Cc2ccccc2)c(=O)[nH]c1=O)NC(=O)c1cn(Cc2ccccc2)c(=O)[nH]c1=O")
"Met"
>>> discrete_label("O=C1Cc2c([nH]c3ccccc23)-c2cc(Br)ccc2N1")
"Met"
>>> discrete_label("O=C(Cn1ccnc1[N+](=O)[O-])NCc1ccc(F)cc1")
"Met"
>>> discrete_label("C=C(CCC(=O)N(CCc1c[nH]c2ccccc12)C(=O)c1ccccc1CSCC)C(=O)OC")
"Met"
>>> discrete_label("Cc1cc(C)c(C2=NO[C@@H]3[C@H]2C(=O)C=C2N(Cc4ccccc4)CCO[C@@]23O)c(C)c1")
"Met"
>>> discrete_label("COC1=C(OC)C(=O)C(Cc2c(-c3ccccc3)nc3sc(Cl)cn23)=C(C)C1=O")
"Not met"

Q: // inclusive: TGI at least 30 µM? input: CCOC(=O)CSc1nc(-c2ccc(Cl)cc2)c(C#N)c(=O)[nH]1
Result: Met

Q: Is it the case that CC(CSc1nc2c(c(=N)n1-c1ccccc1)c(=S)n(-c1ccccc1)c(=S)n2-c1ccccc1)CN(C)C (centres undefined) has TGI reaching or exceeding 30 µM?
Result: Not met

Q: Reported TGI reaches at least 30 µM for NCC[PH+](c1ccccc1)c1ccccc1.NCC[PH+](c1ccccc1)c1ccccc1.[Cl-].[Pt+4] ?
Result: Met

Q: Given CCCCCCCCCCCCCCCC[N+](C)(C)CCl , state whether its TGI is at least 30 µM.
Result: Not met

Q: Threshold query (TGI >= 30 µM) on Cc1cc(C)n(C(C)(C(=O)Cc2ccccc2)n2nc(C)cc2C)n1
Result: Met

Q: Hello, I need to know if COc1ccc(-c2nn(-c3cccc(Cl)c3)cc2-c2c(C#N)c(=O)n3[nH]c(-c4ccc(C)o4)nc3c2C#N)cc1 has measured TGI not below 30 µM. Thanks!
Result: Not met

Q: Reported TGI reaches at least 30 µM for C=C(C)C1CCC2(C)C1CCC1(C)C2CCC2C3(C)C4OC(OC4=O)C(C)(C)C3CCC21C (centres undefined) ?
Result: Met

Q: Could you tell me if the measured TGI of CN(C)CCC(/C=C/c1ccccc1)=N\Nc1c(F)c(F)c(F)c(F)c1F reaches 30 µM or more?
Result: Met

Q: Does TGI meet or surpass 30 µM for O=C([CH-]C(=O)c1ccccc1)c1ccccc1.[CH2-]C.[CH2-]C.[Tl+3] ?
Result: Not met

Q: Is reported TGI greater than or equal to 30 µM here: COc1ccc(C2=NOC3=c4ccccc4=CSC3=C2c2ccccc2)cc1
Result: Met

Q: Item Cc1c(C(=O)/C=C/c2ccc3c(c2)OCO3)[n+](=O)c2ccccc2n1[O-] with TGI of 30 µM or above?
Result: Met
